Origin of the recorded values: patent US9688699B2

The following compounds are listed with their measured MEC values.
target: recombinant guanylate cyclase reporter cell line (Rattus norvegicus, UniProt P19686+P20595)
Construct: expressed in transfected cells
Sequence (P19686 whole entry): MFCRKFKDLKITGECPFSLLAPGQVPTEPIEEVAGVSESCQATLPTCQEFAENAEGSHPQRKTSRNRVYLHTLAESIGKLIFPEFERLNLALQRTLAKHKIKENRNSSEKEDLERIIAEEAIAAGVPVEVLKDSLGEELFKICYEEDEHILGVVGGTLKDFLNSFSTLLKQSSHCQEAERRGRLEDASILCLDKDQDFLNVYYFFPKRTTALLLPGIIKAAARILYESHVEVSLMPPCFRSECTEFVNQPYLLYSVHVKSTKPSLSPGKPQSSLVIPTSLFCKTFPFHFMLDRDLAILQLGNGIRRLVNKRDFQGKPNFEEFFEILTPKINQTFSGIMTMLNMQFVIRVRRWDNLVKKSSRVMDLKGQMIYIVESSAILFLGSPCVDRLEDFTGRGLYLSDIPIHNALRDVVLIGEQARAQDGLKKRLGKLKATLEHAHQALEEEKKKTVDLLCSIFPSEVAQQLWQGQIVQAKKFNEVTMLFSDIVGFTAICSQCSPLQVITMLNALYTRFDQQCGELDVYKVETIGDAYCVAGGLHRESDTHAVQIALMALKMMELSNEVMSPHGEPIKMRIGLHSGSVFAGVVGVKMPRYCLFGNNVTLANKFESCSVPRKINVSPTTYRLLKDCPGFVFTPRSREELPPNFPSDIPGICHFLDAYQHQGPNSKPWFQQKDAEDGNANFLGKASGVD
Sequence (P20595 whole entry): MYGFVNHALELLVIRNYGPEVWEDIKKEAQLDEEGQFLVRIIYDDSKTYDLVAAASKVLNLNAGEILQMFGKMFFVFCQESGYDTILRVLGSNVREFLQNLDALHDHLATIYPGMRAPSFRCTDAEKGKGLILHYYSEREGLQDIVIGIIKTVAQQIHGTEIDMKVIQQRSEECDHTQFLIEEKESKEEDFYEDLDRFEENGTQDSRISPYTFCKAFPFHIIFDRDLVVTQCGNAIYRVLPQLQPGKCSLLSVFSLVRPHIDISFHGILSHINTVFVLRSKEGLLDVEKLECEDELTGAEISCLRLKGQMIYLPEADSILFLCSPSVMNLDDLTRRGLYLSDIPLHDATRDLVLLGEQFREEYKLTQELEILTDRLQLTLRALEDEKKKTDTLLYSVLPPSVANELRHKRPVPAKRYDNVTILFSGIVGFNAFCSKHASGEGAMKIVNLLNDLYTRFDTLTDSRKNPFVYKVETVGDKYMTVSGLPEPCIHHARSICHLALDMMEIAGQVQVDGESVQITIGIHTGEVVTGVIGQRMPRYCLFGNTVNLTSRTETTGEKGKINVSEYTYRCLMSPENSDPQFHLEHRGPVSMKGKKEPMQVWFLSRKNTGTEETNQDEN
procedure-text: Effect on a recombinant guanylate cyclase reporter cell line (B-2)
Format: cell-based
test-parameters: MEC = minimum effective concentration, in some cases mean values for individual determinations

| compound | u | MEC |
| --- | --- | --- |
| Cc1nc2c(OCc3c(F)cccc3F)cccn2c1-c1nc(NCC(C)(C)N)c2c(n1)NC(=O)C2(C)C | µM | 0.2 |
| COc1ccc(CC(C)(N)CNc2nc(-c3c(C)nc4c(OCc5c(F)cccc5F)cccn34)nc3c2C(C)(C)C(=O)N3)cc1 (racemic) | µM | 3 |
| COCC(C)(N)CNc1nc(-c2c(C)nc3c(OCc4c(F)cccc4F)cccn23)nc2c1C(C)(C)C(=O)N2 (racemic) [Example 21] | µM | 0.3 |

###

The following compounds are listed with their measured MEC values.
target: recombinant guanylate cyclase reporter cell line (Rattus norvegicus, UniProt P19686+P20595)
Construct: expressed in transfected cells
procedure-text: Effect on a recombinant guanylate cyclase reporter cell line (B-2)
Assay type: cell-based
test-parameters: MEC = minimum effective concentration, in some cases mean values for individual determinations
Structures can show the parent of a compound that is named as a salt.
measured-attribute: MEC (µM)

| compound | measured-attribute | u | experimental-value |
| --- | --- | --- | --- |
| Cc1nc2c(OCc3c(F)cccc3F)cccn2c1-c1nc2c(c(N3C[C@H]4C[C@@]4(N)C3)n1)C(C)(C)C(=O)N2 (relative stereo) [Example 32] | MEC | µM | 1 |
| Cc1nc2c(OCc3c(F)cccc3F)cccn2c1-c1nc(I)c2c(n1)NC(=O)C2(C)C [Example 2] | MEC | µM | 5.3 |
| Cc1nc2c(OCc3c(F)ccc(F)c3F)cccn2c1-c1nc2c(c(C(=O)N3CCN(C)CC3)n1)C(C)(C)C(=O)N2 [Example 60, trifluoroacetate] | MEC | µM | 3 |
| Cc1nc2c(OCc3c(F)cccc3F)cccn2c1-c1nc(NCC(N)(CF)CF)c2c(n1)NC(=O)C2(C)C [Example 33] | MEC | µM | 1 |
| Cc1nc2c(OCc3c(F)cccc3F)cccn2c1-c1nc2c(c(Oc3cn[nH]c3)n1)C(C)(C)C(=O)N2 [Example 44] | MEC | µM | 1 |

###

target: human phosphodiesterase 5 (PDE 5) (Homo sapiens)
The following compounds are listed with their measured IC50 values.
measured-attribute: IC50 (nM)

| compound | target | measured-attribute | experimental-value |
| --- | --- | --- | --- |
| Cc1nc2c(OCc3c(F)cccc3F)cccn2c1-c1nc2c(c(NC3CC(O)C3)n1)C(C)(C)C(=O)N2 (mixture of isomers) | human phosphodiesterase 5 (PDE 5) (Homo sapiens) | IC50 | 3.6 |
| Cc1nc2c(OCc3c(F)cccc3F)cccn2c1-c1nc(NCC(N)C(F)(F)F)c2c(n1)NC(=O)C2(C)C (racemic) | human phosphodiesterase 5 (PDE 5) (Homo sapiens) | IC50 | 15 |
| Cc1nc2c(OCc3c(F)cccc3F)cccn2c1-c1nc(N)c2c(n1)NC(=O)C2(C)C | human phosphodiesterase 5 (PDE 5) (Homo sapiens) | IC50 | 34 |
| Cc1ncc(-c2nc(-c3c(C)nc4c(OCc5c(F)ccc(F)c5F)cccn34)nc3c2C(C)(C)C(=O)N3)s1 | human phosphodiesterase 5 (PDE 5) (Homo sapiens) | IC50 | 22 |
